Task for the reader: assign each of the following compounds its reported activity at 31 ppm.
Test system: Septoria tritici
test_details: microbe, parasite or virus in culture
Assay type: cell-based
assay_context: Zymoseptoria tritici, 168 h
Express it in %; write the number only.

Prompt line: # input compound: CNC(=O)/C(=N/OC)c1cccc(C(F)(F)F)c1CO/N=C(\C)c1cc(-c2ccc(Cl)cc2)on1 [Example 17] ; wanted: its activity at 31 ppm
Response line: 1

Prompt line: # input compound: CNC(=O)/C(=N/OC)c1cccc(C)c1CO/N=C(\C)c1cc(C(F)(F)F)nc(C)n1 [Example 58] ; wanted: its activity at 31 ppm
Response line: 21

Prompt line: # input compound: CNC(=O)/C(=N/OC)c1cccc(C)c1CO/N=C(\C)c1cccc(OC)n1 [Example 3] ; wanted: its activity at 31 ppm
Response line: 4

Prompt line: # input compound: CNC(=O)/C(=N/OC)c1cccc(C)c1CO/N=C(\C)c1nccc(C(F)(F)F)n1 [Example 73] ; wanted: its activity at 31 ppm
Response line: 21

Prompt line: # input compound: CO/N=C(/C(=O)OC)c1cccc(C)c1CO/N=C(\C)c1nccc(C(F)(F)F)n1 [Example 71] ; wanted: its activity at 31 ppm
Response line: 0

* * *

System: Septoria tritici
test_details: microbe, parasite or virus in culture
Format: cell-based
assay_context: Zymoseptoria tritici, 168 h
Values of activity at 31 ppm strictly less than 6% map to 1.0, and values of at least 6% map to 0.0.

Prompt line: Given CNC(=O)/C(=N/OC)c1cccc(C)c1CO/N=C(\C)c1cc2ccccc2cn1 , is recorded activity at 31 ppm strictly lower than 6%?
Response line: 1.0

Prompt line: Given CO/N=C(/C(=O)OC)c1cccc(C)c1CO/N=C(\C)c1cccc(C(F)(F)F)n1 , is recorded activity at 31 ppm strictly lower than 6%?
Response line: 0.0

Prompt line: Given CO/N=C(/C(=O)OC)c1cccc(C)c1CO/N=C(\C)c1cnc(C)c(F)c1 , is recorded activity at 31 ppm strictly lower than 6%?
Response line: 0.0

Prompt line: Given CO/N=C(/C(=O)OC)c1cccc(C)c1CO/N=C(\C)c1ncsc1C(F)(F)F , is recorded activity at 31 ppm strictly lower than 6%?
Response line: 1.0

Prompt line: Given CO/N=C(/C(=O)OC)c1cccc(C)c1CO/N=C(\C)c1cn(C)nc1C(F)(F)F , is recorded activity at 31 ppm strictly lower than 6%?
Response line: 1.0

Prompt line: Given CNC(=O)/C(=N/OC)c1cccc(C)c1CO/N=C(\C)c1cc(C)ccn1 , is recorded activity at 31 ppm strictly lower than 6%?
Response line: 0.0

Prompt line: Given CO/N=C(/C(=O)OC)c1cccc(C)c1CO/N=C(\C)c1nccc2ccccc12 , is recorded activity at 31 ppm strictly lower than 6%?
Response line: 1.0
